- Assayed target: bovine α-1A (Bos taurus, UniProt P18130)
- Construct: expressed in transfected cells; host or cells: NIH-3T3
- Sequence (P18130 1-466): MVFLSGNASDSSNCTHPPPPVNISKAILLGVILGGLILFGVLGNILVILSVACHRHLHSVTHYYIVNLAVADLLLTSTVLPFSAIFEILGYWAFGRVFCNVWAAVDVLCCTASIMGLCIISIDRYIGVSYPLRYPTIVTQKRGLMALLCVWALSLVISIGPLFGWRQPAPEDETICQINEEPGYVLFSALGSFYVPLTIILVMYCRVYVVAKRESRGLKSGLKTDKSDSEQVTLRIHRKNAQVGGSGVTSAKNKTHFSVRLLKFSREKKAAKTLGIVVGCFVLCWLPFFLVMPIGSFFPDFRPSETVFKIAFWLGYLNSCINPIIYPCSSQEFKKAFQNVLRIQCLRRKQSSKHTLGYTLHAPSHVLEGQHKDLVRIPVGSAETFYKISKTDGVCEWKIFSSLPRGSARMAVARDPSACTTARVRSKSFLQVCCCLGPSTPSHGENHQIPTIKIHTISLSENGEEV
- Protocol text: RSAT assay, α-1A receptor
- Type: cell-based
- Test settings: NA = not active (EC50 ≧ 10,000)
Metric: EC50 (nM)
Output spec: scalar in nM, unitless text.

**Query** Write down the reported EC50 of S=c1[nH]cc(CC2CC=CC2)[nH]1 , test system: bovine α-1A (Bos taurus, UniProt P18130).
**Result** 1710
